Measured Prompt Rat NHE3 pIC50, listed per entry.
Target: Rat NHE3 (Rattus norvegicus, UniProt P26433)
Construct: expressed in transfected cells; host or cells: Opossum kidney (OK) cells (ATCC), electroporation
Sequence (P26433 29-831): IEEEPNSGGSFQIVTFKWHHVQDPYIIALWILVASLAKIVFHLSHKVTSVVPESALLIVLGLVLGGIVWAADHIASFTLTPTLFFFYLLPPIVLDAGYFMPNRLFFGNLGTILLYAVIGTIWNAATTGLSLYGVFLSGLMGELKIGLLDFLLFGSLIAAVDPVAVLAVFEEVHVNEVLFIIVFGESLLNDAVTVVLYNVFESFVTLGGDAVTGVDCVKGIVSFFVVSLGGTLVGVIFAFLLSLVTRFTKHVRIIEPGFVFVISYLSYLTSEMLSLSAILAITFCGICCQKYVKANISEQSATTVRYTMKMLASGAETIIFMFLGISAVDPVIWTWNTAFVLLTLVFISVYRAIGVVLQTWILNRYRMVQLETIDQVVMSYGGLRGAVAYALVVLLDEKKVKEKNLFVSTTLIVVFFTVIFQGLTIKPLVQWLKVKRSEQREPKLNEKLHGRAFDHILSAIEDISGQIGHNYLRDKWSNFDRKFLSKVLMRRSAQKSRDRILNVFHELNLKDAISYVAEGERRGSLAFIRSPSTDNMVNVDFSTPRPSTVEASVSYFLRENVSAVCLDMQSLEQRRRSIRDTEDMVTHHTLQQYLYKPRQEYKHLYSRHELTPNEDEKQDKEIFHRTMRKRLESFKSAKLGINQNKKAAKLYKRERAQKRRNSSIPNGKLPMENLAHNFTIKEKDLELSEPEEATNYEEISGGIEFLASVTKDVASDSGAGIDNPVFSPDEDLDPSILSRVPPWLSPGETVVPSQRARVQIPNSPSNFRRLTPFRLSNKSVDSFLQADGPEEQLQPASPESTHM
Assay: Cell-based NHE3 activity under prompt conditions (OK cells, BCECF pH recovery), rat NHE3
Details: prompt conditions
Experimental: Cell-based activity under Prompt Conditions. Rat or human NHE3-mediated Na^+-dependent H antiport was measured using a modification of the pH sensitive dye method originally reported by Paradiso (PNAS USA. 81:7436-7440, 1984). Opossum kidney (OK) cells were obtained from the ATCC and propagated per their instructions. […]
Respond using a number only.

The examples below pair each entry with its known result.
>>> quantitative_result("CN1Cc2c(Cl)cc(Cl)cc2[C@H](c2cccc(S(=O)(=O)NCCOCCOCCOCCN)c2)C1 [compound 22]")
7.34
>>> quantitative_result("CN1Cc2c(Cl)cc(Cl)cc2[C@H](c2cccc(S(=O)(=O)N(C)CCOCCOCCNC(=O)NCCCN(CCCNC(=O)NCCOCCOCCN(C)S(=O)(=O)c3cccc([C@@H]4CN(C)Cc5c(Cl)cc(Cl)cc54)c3)CCCNC(=O)NCCOCCOCCN(C)S(=O)(=O)c3cccc([C@@H]4CN(C)Cc5c(Cl)cc(Cl)cc54)c3)c2)C1 [compound 106]")
7.00
>>> quantitative_result("CN1Cc2c(Cl)cc(Cl)cc2[C@H](c2cccc(S(=O)(=O)NCCOCCOCCNC(=O)CN(CCOCCOCCOCCNC(=O)c3ccc(-c4ccc(Cl)cc4)cc3)CC(=O)NCCOCCOCCNS(=O)(=O)c3cccc([C@@H]4CN(C)Cc5c(Cl)cc(Cl)cc54)c3)c2)C1 [compound 105]")
5.90
>>> quantitative_result("CN1Cc2c(Cl)cc(Cl)cc2[C@H](c2cccc(S(=O)(=O)NCCOCCOCCNC(=O)CCC(CCC(=O)NCCOCCOCCNS(=O)(=O)c3cccc([C@@H]4CN(C)Cc5c(Cl)cc(Cl)cc54)c3)(CCC(=O)NCCOCCOCCNS(=O)(=O)c3cccc([C@@H]4CN(C)Cc5c(Cl)cc(Cl)cc54)c3)NC(=O)Cn3ccnc3)c2)C1 [compound 154]")
6.80
>>> quantitative_result("C=CC(=O)NCCOCCOCCOCCNS(=O)(=O)c1cccc([C@@H]2CN(C)Cc3c(Cl)cc(Cl)cc32)c1 [compound 104]")
6.70
>>> quantitative_result("CN1Cc2c(Cl)cc(Cl)cc2C(c2cccc(S(=O)(=O)NCCOCCOCCNC(=O)CN(CCOCCOCCOCCN)CC(=O)NCCOCCOCCNS(=O)(=O)c3cccc([C@@H]4CN(C)Cc5c(Cl)cc(Cl)cc54)c3)c2)C1 (stereo in doubt) [compound 120]")
7.80
>>> quantitative_result("CN(C)[C@H]1Cc2c(Cl)cc(Cl)cc2[C@@H]1Oc1ccc(S(=O)(=O)NCCOCCOCCNC(=O)[C@H](O)[C@@H](O)C(=O)NCCOCCOCCNS(=O)(=O)c2ccc(O[C@H]3c4cc(Cl)cc(Cl)c4C[C@@H]3N(C)C)cc2)cc1 [compound 150]")
8.60
>>> quantitative_result("CN(C)[C@H]1Cc2c(Cl)cc(Cl)cc2[C@@H]1Oc1ccc(S(=O)(=O)NCCOCCOCCNC(=O)C(C)(C)C(=O)NCCOCCOCCNS(=O)(=O)c2ccc(O[C@H]3c4cc(Cl)cc(Cl)c4C[C@@H]3N(C)C)cc2)cc1 [compound 151]")
8.30

Query :: Value wanted: Prompt Rat NHE3 pIC50 (Rat NHE3 (Rattus norvegicus, UniProt P26433)) of entry CN1Cc2c(Cl)cc(Cl)cc2[C@H](c2cccc(S(=O)(=O)NCCOCCOCCOCCn3cc(CN(Cc4cn(CCOCCOCCOCCNS(=O)(=O)c5cccc([C@@H]6CN(C)Cc7c(Cl)cc(Cl)cc76)c5)nn4)Cc4cnnn4CCOCCOCCOCCNS(=O)(=O)c4cccc([C@@H]5CN(C)Cc6c(Cl)cc(Cl)cc65)c4)nn3)c2)C1 [compound 73]
Result :: 5.30

Query :: Consider next the compound CN1Cc2c(Cl)cc(Cl)cc2[C@H](c2cccc(S(=O)(=O)NCCOCCOCCNC(=O)CCC(N)(CCC(=O)NCCOCCOCCNS(=O)(=O)c3cccc([C@@H]4CN(C)Cc5c(Cl)cc(Cl)cc54)c3)CCC(=O)NCCOCCOCCNS(=O)(=O)c3cccc([C@@H]4CN(C)Cc5c(Cl)cc(Cl)cc54)c3)c2)C1 [compound 88] in the same way.
Result :: 7.07

Query :: Check CN1Cc2c(Cl)cc(Cl)cc2[C@H](c2cccc(S(=O)(=O)NCCOCCOCCNC(=O)CCC(CCC(=O)NCCOCCOCCNS(=O)(=O)c3cccc([C@@H]4CN(C)Cc5c(Cl)cc(Cl)cc54)c3)(CCC(=O)NCCOCCOCCNS(=O)(=O)c3cccc([C@@H]4CN(C)Cc5c(Cl)cc(Cl)cc54)c3)NC(=O)NCCN3CCOCC3)c2)C1 [compound 144] too.
Result :: 7.20

Query :: Request: CCN(CCOCCOCCNC(=O)NCCCN(CCCNC(=O)NCCOCCOCCN(CC)S(=O)(=O)c1cccc([C@@H]2CN(C)Cc3c(Cl)cc(Cl)cc32)c1)CCCNC(=O)NCCOCCOCCN(CC)S(=O)(=O)c1cccc([C@@H]2CN(C)Cc3c(Cl)cc(Cl)cc32)c1)S(=O)(=O)c1cccc([C@@H]2CN(C)Cc3c(Cl)cc(Cl)cc32)c1 [compound 132]
Result :: 6.00

Query :: # iterate: CN1Cc2c(Cl)cc(Cl)cc2[C@H](c2cccc(S(=O)(=O)NCCOCCOCCNC(=O)COCC(=O)NCCOCCOCCNS(=O)(=O)c3ccc(O[C@H]4c5ccccc5C[C@@H]4N4CCCCC4)cc3)c2)C1 [compound 97]
Result :: 7.60

Query :: What do we get for N=C(N)Nc1nc(-c2ccc(N3CCN(CCOCCOCCOCCNC(=O)CCOCCOCCOCCOCCOCCC(=O)NCCOCCOCCOCCN4CCN(c5ccc(-c6nc(NC(=N)N)nc7ccc(Cl)cc67)cc5)CC4)CC3)cc2)c2cc(Cl)ccc2n1 [compound 24] ?
Result :: 7.68

Query :: What would you report for C[C@@H](O)[C@H](NC(=O)NC(CCC(=O)NCCOCCOCCNS(=O)(=O)c1cccc([C@@H]2CN(C)Cc3c(Cl)cc(Cl)cc32)c1)(CCC(=O)NCCOCCOCCNS(=O)(=O)c1cccc([C@@H]2CN(C)Cc3c(Cl)cc(Cl)cc32)c1)CCC(=O)NCCOCCOCCNS(=O)(=O)c1cccc([C@@H]2CN(C)Cc3c(Cl)cc(Cl)cc32)c1)C(N)=O [compound 159] ?
Result :: 7.20
